binding response of second antibody (nm) for assorted binders
SUBJECT_OF_TEST: T1, human GFRα3 expressed with a C-terminal myc-myc-hexahistidine tag (human, UniProt O60609 32-374, biotinylated (sites not given) in ELISA format 2 and in the Octet cross-competition; not in SPR)
T1 construct: also called hGFRα3-mmh; hGFRα3-mmH
PROCEDURE_TEXT: Octet cross-competition; biotin-hGFRα3-mmH pre-saturated with first antibody H4H2357S
I only need the number, in nm, no unit after it.

binding response of second antibody (nm) lookup needed for H4H2243N2 (antibody, human IgG4, V domains shown, human IgG4 Fc (H4H)) VH: QVQLVQSGAEVKKPGASVKVSCKASGYTFTSYGIIWVRQAPGQGLEWMGWISGYNGNTNYAQNLQGRVTMTTDTSTTTAYMELRSLRSDDTAVYYCARWGIATRPYYYYGMDVWGQGTTVTVSS VL: DIQMTQSPSSLSASVGDRVTITCRASQDITNYLAWFQQKPGKAPKSLIYAASSLQSGVPSKFSGSGSGTDFTLTISSLQPEDFATYYCQQYNSYPPTFGPGTKVDIK , thanks.
0.01

Also need H4H2357S (antibody, human IgG4, V domains shown, human IgG4 Fc (H4H)) VH: EVQLVESGGGLVQPGGSLRLSCAASTFTFSSYAMTWVRQAPGKGLEWVSSISGSGDSTYYADSVKGRFTISRDNSKNTLFLQMNSLRAEDTAVYYCAKKDGPGRYYVRYGMDVWGQGTTVTVSS VL: DIQMTQSPSSVSASVGDRVTITCRASQGISSWLAWYQQKPGKAPKLLIYTTSSLQSGVPSRFSGSGSGTDFTLTISSLQPEDFATYYCQQANSFPLTFGGGTKVDIK , thanks.
0.04

Also need H4H2291S (antibody, human IgG4, V domains shown, human IgG4 Fc (H4H)) VH: EVQLVESGGGLVQPGESLRLSCAASGFTFSNYAMSWVRQAPGKGLEWVSVISGSGGSTYYADSVKGRFTMSRDNSKNTLYLQMNSLRAEDTAVYYCAKPPSRAARYFNYGMDVWGQGTTVTVSS VL: AIRMTQSPSSVSASVGDRVTITCRASQGISSWLAWYQQKPGKAPKLLIYAASSLQSGVPSRFSGSGSGTDFTLTISSLQPEDFATYYCQQANSFPFTFGGGTKVEIK , thanks.
0.18

---
binding response of second antibody (nm) lookup needed for H4H2294S (antibody, human IgG4, V domains shown, human IgG4 Fc (H4H)) VH: EVQLVESGGGLVQPGGSLRLSCAASGFTFSSYAMSWVRQAPGKGLEWVSVISGSGGSTYYADAVKGRFTISRDNSKHTLYLQMNSLRAEDTAVYYCTKPSSYSSSNFYYGMDVWGQGSTVTVSS VL: DIQLTQSPSSVSASVGDRVTITCRASQGISSWLAWYQQKPGKAPKLLIYAASSLQSGVPSRFSGSGSGTDFTLTISSLQPEDFATYYCQQTNSFPFPFGPGTKVDIK , thanks.
0.05

Origin of measurements: patent US20140056903A1
